- experimentalSystem: T1, HEK293/hPRLR (Homo sapiens, UniProt P16471)
- T1 construct: HA; expressed in transfected cells; host or cells: HEK293
- T1 sequence (P16471 25-622): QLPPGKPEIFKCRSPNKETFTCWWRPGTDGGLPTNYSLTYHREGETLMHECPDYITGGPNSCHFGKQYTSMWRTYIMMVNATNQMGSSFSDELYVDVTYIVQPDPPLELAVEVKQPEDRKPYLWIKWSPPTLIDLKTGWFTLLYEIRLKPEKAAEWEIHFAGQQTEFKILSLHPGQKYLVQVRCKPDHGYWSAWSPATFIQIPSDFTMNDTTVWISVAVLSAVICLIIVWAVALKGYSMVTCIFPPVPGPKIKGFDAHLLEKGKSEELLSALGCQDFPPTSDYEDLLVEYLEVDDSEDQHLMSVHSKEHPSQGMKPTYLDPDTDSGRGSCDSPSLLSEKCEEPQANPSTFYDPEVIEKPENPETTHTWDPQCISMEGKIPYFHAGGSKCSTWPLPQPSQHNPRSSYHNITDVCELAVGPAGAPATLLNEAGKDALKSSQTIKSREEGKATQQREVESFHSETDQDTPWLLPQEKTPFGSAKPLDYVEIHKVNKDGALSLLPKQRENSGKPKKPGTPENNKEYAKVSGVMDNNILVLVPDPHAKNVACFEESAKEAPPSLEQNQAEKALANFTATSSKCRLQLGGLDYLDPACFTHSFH
- assayProtocol: FACS cell surface binding
measurementKind: FACS Cell Binding (Fold Above Background)
Write down the numeric answer in Fold Above Background and omit the unit.

Enquiry: Annotate the molecule H1H6804P: anti-PRLR antibody, human IgG1 Fc; HCVR/LCVR SEQ ID NOs 242/250 (antibody, V domains shown, human IgG1 Fc) VH: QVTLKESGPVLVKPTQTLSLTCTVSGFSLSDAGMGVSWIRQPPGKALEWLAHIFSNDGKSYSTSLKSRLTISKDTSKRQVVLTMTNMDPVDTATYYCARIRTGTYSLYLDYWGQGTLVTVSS VL: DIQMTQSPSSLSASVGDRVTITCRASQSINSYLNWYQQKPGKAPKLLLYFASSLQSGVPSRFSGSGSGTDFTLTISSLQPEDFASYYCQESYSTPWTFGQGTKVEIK with its measured FACS Cell Binding (Fold Above Background).
Return: 1
